Entry source: patent US20080176898A1

IC50 by entry:
# assayTarget: human CysLT2 receptor (Homo sapiens)
# Sequence (Q9NS75 1-346): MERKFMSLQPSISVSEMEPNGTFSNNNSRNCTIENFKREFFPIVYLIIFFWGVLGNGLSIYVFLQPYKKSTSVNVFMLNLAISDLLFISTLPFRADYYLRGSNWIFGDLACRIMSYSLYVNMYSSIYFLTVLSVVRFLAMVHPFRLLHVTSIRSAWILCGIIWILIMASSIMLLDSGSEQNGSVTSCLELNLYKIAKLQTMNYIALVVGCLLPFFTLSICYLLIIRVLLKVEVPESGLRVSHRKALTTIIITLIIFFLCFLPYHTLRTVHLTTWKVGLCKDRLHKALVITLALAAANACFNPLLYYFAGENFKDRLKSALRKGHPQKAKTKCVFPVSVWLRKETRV
# experimentNotes: Cellular in vitro test to determine the CysLT2 activity (aequorin luminescence, CHO K1 cells)
# setupConditions: recombinant CHO K1 cells with aequorin and human CysLT2 receptor; antagonism of LTD4 (3×10^−8 M) induced calcium release; 15 minutes preincubation

compound | IC50
O=C(O)CNC(=O)Cc1cc(C(=O)O)ccc1OCCCc1ccc(OCCCC2CCCCC2)cc1 | 0.075 µM
O=C(O)CCCNC(=O)Cc1cc(C(=O)O)ccc1OCCCc1ccc(OCCCC2CCCCC2)cc1 | 0.045 µM
O=C(O)c1ccc(OCCCc2ccc(OCCCCOC3CCCCC3)cc2)c(CC(=O)N2CCCC(C(=O)O)C2)c1 (centres unmarked) | 0.045 µM
O=C(O)CCCNC(=O)Cc1cc(C(=O)O)ccc1OCCCc1ccc(OCCCCOc2ccccc2)cc1 | 0.14 µM
O=C(O)c1ccc(OCCCc2ccc(OCCCC3CCCCC3)cc2)c(CC(=O)N2CCC(C(=O)O)CC2)c1 | 0.07 µM
